Below are pIC50 values recorded for AChE hRBC (Homo sapiens).
# pIC50 is unitless: minus log10 of the molar concentration; print number only

>>> reported_result("COc1cc2nc(N3CCN(C(=O)CCCCCCCNC(=O)Oc4cccc(C(C)(C)CN(C)C)c4)CC3)nc(N)c2cc1OC")
7.10

Which measured pIC50 belongs to C[C@@H]1CN(CCCCCCCCNC(=O)Oc2cccc(C(C)(C)CN(C)C)c2)C[C@H](C)O1 , tested on AChE hRBC (Homo sapiens)?
6.38

Which measured pIC50 belongs to CC(CN(C)C)c1cccc(OC(=O)NCCCCCCCCN2CCOCC2)c1 (stereo not drawn) , tested on AChE hRBC (Homo sapiens)?
6.66

Which measured pIC50 belongs to CN(C)CC(C)(C)c1cccc(OC(=O)N(C)c2cccc(C(F)(F)F)c2)c1 , tested on AChE hRBC (Homo sapiens)?
5.96

Which measured pIC50 belongs to CCCCN(C(=O)Oc1cccc(C(C)(C)CN(C)C)c1)c1ccccc1 , tested on AChE hRBC (Homo sapiens)?
6.38

Which measured pIC50 belongs to CN(C)CC(C)(C)c1cccc(OC(=O)N(C)c2ccc(Cl)cc2)c1 , tested on AChE hRBC (Homo sapiens)?
7.22
